src = patent US6710075B2

Assignment: determine reported CC50 for the given compounds.
Test system: K562
Protocol description: Cytotoxic activity, sub-diploid DNA content by flow cytometry (propidium iodide)
Assay type: cell-based, human
Test settings: K562, 6 days; read-out: LC50 (6 day cultures)
Answers are plain numbers, in nM.

Please go through the list and note CC50 for each compound.
1. COC(=O)[C@H]1[C@@H](O)[C@@]2(O)c3c(OC)cc(OC4OC(C(O)CO)COC4OC)cc3O[C@@]2(c2ccc(OC)cc2)[C@@H]1c1ccccc1 (single isomer, unassigned) [Compound B]
2. COC(=O)[C@H]1[C@@H](O)[C@@]2(O)c3c(OC)cc(OC4OC(C(O)CO)COC4OC)cc3O[C@@]2(c2ccc(OC)cc2)[C@@H]1c1ccccc1 (single isomer, unassigned) [Compound A]

Return:
15
12

====

Tested on: A549
Protocol description: Cytotoxic activity, sub-diploid DNA content by flow cytometry (propidium iodide)
Assay type: cell-based, human
Test settings: A549, 6 days; read-out: LC50 (6 day cultures)
Description: (b) Compound A was assessed for cytotoxic and cytostatic activity against a panel of cell lines derived from a variety of human tumour types in addition to THP-1 and A549 cells (Table 5). These included K562 leukemic cells (Lozzio and Lozzio, 1975, Blood 45:321-34), PC3 prostate tumour cells (Kaighn et al., 1979, Invest. Urol. 17:16-23) and SF268 glioblastoma cells (Westphal et al, 1985, Biochem. Biophys. Res. Commun., 132:284-9). […]
Assay metric: CC50 (nM)
One number for each entry, in nM.

COC(=O)[C@H]1[C@@H](O)[C@@]2(O)c3c(OC)cc(OC4OC(C(O)CO)COC4OC)cc3O[C@@]2(c2ccc(OC)cc2)[C@@H]1c1ccccc1 (single isomer, unassigned) [Compound A]; 15

Please examine the following record next.
Enquiry: Find the recorded CC50 belonging to COC(=O)[C@H]1[C@@H](O)[C@@]2(O)c3c(OC)cc(OC4OC(C(O)CO)COC4OC)cc3O[C@@]2(c2ccc(OC)cc2)[C@@H]1c1ccccc1 (single isomer, unassigned) [Compound B] and report it.
Return: 12

====

Test system: PC3
Protocol description: Cytotoxic activity, sub-diploid DNA content by flow cytometry (propidium iodide)
Assay type: cell-based, human
Test settings: PC3, 6 days; read-out: LC50 (6 day cultures)
Protocol: (b) Compound A was assessed for cytotoxic and cytostatic activity against a panel of cell lines derived from a variety of human tumour types in addition to THP-1 and A549 cells (Table 5). These included K562 leukemic cells (Lozzio and Lozzio, 1975, Blood 45:321-34), PC3 prostate tumour cells (Kaighn et al., 1979, Invest. Urol. 17:16-23) and SF268 glioblastoma cells (Westphal et al, 1985, Biochem. Biophys. Res. Commun., 132:284-9). […]
Assay metric: CC50 (nM)
Numbers only, in nM.

Enquiry: Record lookup: for PC3, what CC50 belongs to COC(=O)[C@H]1[C@@H](O)[C@@]2(O)c3c(OC)cc(OC4OC(C(O)CO)COC4OC)cc3O[C@@]2(c2ccc(OC)cc2)[C@@H]1c1ccccc1 (single isomer, unassigned) ?
Return: 12

====

Tested on: THP-1
Protocol description: Cytotoxic activity, sub-diploid DNA content by flow cytometry (propidium iodide)
Type: cell-based, human
Test settings: THP-1, 6 days; read-out: LC50 (6 day cultures)
Assay metric: CC50 (nM)
Give bare numbers, in nM.

Enquiry: Find the recorded CC50 belonging to COC(=O)[C@H]1[C@@H](O)[C@@]2(O)c3c(OC)cc(OC4OC(C(O)CO)COC4OC)cc3O[C@@]2(c2ccc(OC)cc2)[C@@H]1c1ccccc1 (single isomer, unassigned) and report it.
Return: 15
